Reference for the values: ChEMBL document CHEMBL1201862

target: Glucose-6-phosphate 1-dehydrogenase (Homo sapiens); experiment: inhibition of Homo sapiens G6PD, dose series – biochemical, fluorescence, selectivity assay for P. falciparum G6PD inhibitor project, dose response (AID 504792); format: functional
Sequence (P11413 whole entry): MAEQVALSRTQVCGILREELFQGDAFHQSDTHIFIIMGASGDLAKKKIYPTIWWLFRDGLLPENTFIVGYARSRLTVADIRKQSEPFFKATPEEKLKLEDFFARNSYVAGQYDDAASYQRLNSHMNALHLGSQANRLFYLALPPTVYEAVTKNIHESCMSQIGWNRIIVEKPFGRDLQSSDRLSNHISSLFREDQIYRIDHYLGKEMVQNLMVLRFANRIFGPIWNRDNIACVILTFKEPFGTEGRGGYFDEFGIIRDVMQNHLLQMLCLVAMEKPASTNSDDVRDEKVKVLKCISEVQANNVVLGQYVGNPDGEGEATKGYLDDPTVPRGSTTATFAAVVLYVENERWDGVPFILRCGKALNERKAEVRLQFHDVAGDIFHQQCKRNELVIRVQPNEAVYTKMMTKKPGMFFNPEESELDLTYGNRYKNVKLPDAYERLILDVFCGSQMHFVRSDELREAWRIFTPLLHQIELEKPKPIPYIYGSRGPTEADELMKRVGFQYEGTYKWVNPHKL
Activity calls are given as the source filed them.
assay-metric: IC50

Q. Provide one value: measured IC50 of `CC(C)(C)c1ccc(C(=O)Nc2sc3c(c2C(=O)O)CCC3)cc1`
A. > 80 µM (inactive)

====

biological target: Mucolipin-3 (Homo sapiens, UniProt Q8TDD5); assay: Dose response cell-based high-throughput screening assay for agonists of the transient receptor potential channel ML3 (TRPML3). [Related pubchem assays: 1526, 1424, 1448 ]; type: functional
Sequence (Q8TDD5 whole entry): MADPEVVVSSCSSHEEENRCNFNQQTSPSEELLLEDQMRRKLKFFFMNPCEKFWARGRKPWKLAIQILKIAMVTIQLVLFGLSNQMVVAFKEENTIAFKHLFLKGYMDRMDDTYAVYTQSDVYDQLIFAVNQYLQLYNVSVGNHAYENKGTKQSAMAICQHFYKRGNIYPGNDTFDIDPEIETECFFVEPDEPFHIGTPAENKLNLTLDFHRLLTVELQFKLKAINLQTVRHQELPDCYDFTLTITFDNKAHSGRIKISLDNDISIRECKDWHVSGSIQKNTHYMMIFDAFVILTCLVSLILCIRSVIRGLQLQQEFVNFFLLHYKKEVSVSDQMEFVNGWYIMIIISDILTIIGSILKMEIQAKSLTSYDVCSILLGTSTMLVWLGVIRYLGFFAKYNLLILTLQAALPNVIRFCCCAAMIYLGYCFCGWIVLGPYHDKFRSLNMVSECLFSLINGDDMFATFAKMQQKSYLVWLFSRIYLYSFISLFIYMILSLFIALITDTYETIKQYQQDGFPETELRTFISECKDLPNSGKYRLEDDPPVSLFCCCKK
Active and inactive are the calls of the source.
Documented EC50 across a set of compounds

Example results:
O=C(CN1CCN(S(=O)(=O)c2ccc(F)cc2)CC1)Nc1ccc(Cl)c(C(F)(F)F)c1 ... 3.5 µM (active)
O=S(=O)(N1CCCCC1)N1CCN(c2cc(Cl)ccc2Cl)CC1 ... 2.07 µM (active)
Cc1cc(C)c(S(=O)(=O)c2c(C)cccc2C)c(OCC(C)C)n1 ... 4.35 µM (active)

Turning now to a further compound:
Q. Provide one value: measured EC50 of `COc1ccc(OC)c(S(=O)(=O)N2CCCc3ccccc32)c1`
A. 3.58 µM (active)

====

Biological target: Streptokinase A (Streptococcus pyogenes serotype M1, UniProt P10520)
Sequence (P10520 whole entry): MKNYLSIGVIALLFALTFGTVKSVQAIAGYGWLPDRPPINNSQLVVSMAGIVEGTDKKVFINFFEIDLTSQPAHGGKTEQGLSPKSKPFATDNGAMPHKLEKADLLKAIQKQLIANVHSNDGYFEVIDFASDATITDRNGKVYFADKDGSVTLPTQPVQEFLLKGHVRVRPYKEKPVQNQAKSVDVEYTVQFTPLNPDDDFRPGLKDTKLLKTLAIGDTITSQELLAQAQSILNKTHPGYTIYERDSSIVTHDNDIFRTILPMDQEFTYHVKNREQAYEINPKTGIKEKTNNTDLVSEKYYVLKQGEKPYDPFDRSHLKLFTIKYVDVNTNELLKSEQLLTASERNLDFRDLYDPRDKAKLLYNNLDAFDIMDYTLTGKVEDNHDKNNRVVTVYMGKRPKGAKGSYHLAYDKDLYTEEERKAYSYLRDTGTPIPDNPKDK
Test: viability-normalized secreted streptokinase activity reduction – plasminogen activation absorbance, OD405, dose response (AID 1914);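 also: secreted streptokinase activity via plasminogen activation per viability signal from cell pellet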
Assay type: functional, Streptococcus pyogenes M1 GAS
The source made the active and inactive calls.
assay-metric: EC50

CC(=O)NC[C@H]1CN(c2ccc(N3CCOCC3)c(F)c2)C(=O)O1 ... 6 µM (inconclusive)
O=C(Cc1csc(Nc2[nH]c(=S)nc3ccccc23)n1)NCCCN1CCN(c2cccc(Cl)c2)CC1 ... > 150 µM (not active)
COc1ccc(O)c(C(=O)c2coc(=N)c(C(=O)Nc3ccc(SC(F)F)cc3)c2)c1 ... > 150 µM (not active)
CCOC(=O)c1c(NC(=O)c2c(N)n(CCCOC)c3nc4ccccc4nc23)sc2c1CCCC2 ... > 150 µM (not active)
CC(C)Cn1c(N)c(C(=O)NCc2cccs2)c2nc3ccccc3nc21 ... 30.2 µM (active)

Q. Provide one value: measured EC50 of `CCCCCCc1cc2cc(C(=O)OCC)c(=O)oc2cc1O`
A. 12.8 µM (active)

Q. Provide one value: measured EC50 of `NCCS(=O)(=O)NC1CCCCC1`
A. > 150 µM (not active)

Q. Provide one value: measured EC50 of CCC(C)c1ccccc1NS(=O)(=O)c1cnn(CC)c1 (stereo not given)
A. > 150 µM (not active)

Q. Provide one value: measured EC50 of `CCC(CC)C1=NN2C(=N)/C(=C\c3cc(C)n(-c4cccc(C)c4)c3C)C(=O)N=C2S1`
A. > 150 µM (not active)

Q. Provide one value: measured EC50 of `COc1ccc(-c2nc(/C=C3\C(C)=Nc4ccccc43)c(O)o2)cc1`
A. > 150 µM (not active)

====

assay: Trypanosoma cruzi growth suppression in host cells – NIH3T3 host cells, beta-gal luminescence, confirmation (AID 2044); type: functional, cell-based;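 also: intracellular parasites grown in NIH/3T3 mouse fibroblasts as host cells; luminescent beta-galactosidase reporter signal from transgenic T. cruzi replicating inside host cells; inhibitors lower the luminescence signal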
Calls of active or inactive are those of the source.
Documented EC50 across a set of molecules

Example results:
CCN(CC)c1ccc(/N=C/c2ccc(N(CC)CC)cc2O)cc1 ... 3250 nM (active)
Cc1cccc(C)c1N=C(S)N(Cc1ccccc1)Cc1cccnc1 ... 1460 nM (active)

Q. Provide one value: measured EC50 of COc1ccc(CN(C(=O)Cc2cccs2)C(C(=O)NC2CCCC2)c2ccncc2)cc1 (centres undefined)
A. 2220 nM (active)

Q. Provide one value: measured EC50 of CC(NC(=O)c1cccnc1)C(c1cccs1)N1CCOCC1 (centres undefined)
A. > 60000 nM (not active)

====

target: Zinc finger protein mex-5 (Caenorhabditis elegans); assay: potency of MEX-5 RNA-binding blockers – biochemical, C. elegans, fluorescence polarization, dose response (AID 1960)
Sequence (Q9XUB2 whole entry): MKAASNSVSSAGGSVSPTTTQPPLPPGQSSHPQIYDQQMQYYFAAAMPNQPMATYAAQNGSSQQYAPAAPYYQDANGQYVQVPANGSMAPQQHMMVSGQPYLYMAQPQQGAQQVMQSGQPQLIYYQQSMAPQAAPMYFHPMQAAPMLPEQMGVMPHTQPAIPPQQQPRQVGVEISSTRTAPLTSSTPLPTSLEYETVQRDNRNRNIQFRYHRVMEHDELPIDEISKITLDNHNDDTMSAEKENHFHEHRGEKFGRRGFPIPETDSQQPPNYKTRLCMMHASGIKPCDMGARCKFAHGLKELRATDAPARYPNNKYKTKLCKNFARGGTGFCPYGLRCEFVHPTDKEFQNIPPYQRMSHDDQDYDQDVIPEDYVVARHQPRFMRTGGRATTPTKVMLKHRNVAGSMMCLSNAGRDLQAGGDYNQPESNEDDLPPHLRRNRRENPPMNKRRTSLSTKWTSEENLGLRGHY
Active and inactive are the calls of the source.
Documented EC50 across a set of compounds

COc1cccc(CN2C(=O)C3(C(C#N)=C(N)OC4=C3C(=O)CCC4)c3ccccc32)c1 (configuration not stated) ... > 300 µM (not active)
O=C(NNC(=O)c1cnccn1)c1cccc([N+](=O)[O-])c1 ... 1.03 µM (active)
C1=CC2c3ccccc3NC(c3ccncc3)C2C1 (configuration not stated) ... 56.6 µM (inconclusive)
CCOc1ccc(N2C(=O)/C(=C/Nc3ccnn3Cc3ccncc3)c3ccccc3C2=O)cc1 ... > 300 µM (not active)

Q. Provide one value: measured EC50 of `CCN(CC)c1ccc(/N=C/c2ccc(N(CC)CC)cc2O)cc1`
A. > 300 µM (not active)

Q. Provide one value: measured EC50 of `Cc1ccc(/C(O)=C/c2nc3ccccc3oc2=O)cc1`
A. > 300 µM (inconclusive)

Q. Provide one value: measured EC50 of CSCC(C)N1CCC(n2nccc2NC(=O)CCCc2ccccc2)CC1 (configuration not stated)
A. 8.67 µM (active)

====

assay: alpha-synuclein stem-loop luciferase translation blockers – H4 neuroglioma cells, luminescence, confirmation (AID 1988); type: functional, cell-based
Calls of active or inactive are those of the source.
Documented EC50 across a set of molecules

Example results:
COc1ccc2c(c1)CCN=C2Cc1ccc(OC)c(OC)c1 ... > 120 µM (not active)
O=C(N/N=C(\Cc1ncc[nH]1)c1ccccc1)c1ccccc1 ... > 120 µM (not active)
COc1ccc(S(=O)(=O)N2c3cc(Cl)ccc3Oc3nc4ccccc4nc32)cc1 ... < 0.1 µM (active)

Q. Provide one value: measured EC50 of Cc1cccn2c(O)c(C(=O)NC3CC(C)CC(C)(C)C3)c(=O)nc12 (configuration not stated)
A. 16.3 µM (active)

Q. Provide one value: measured EC50 of `CCSc1nnc(-c2cccnc2)n1-c1ccc(C)c(Cl)c1`
A. > 120 µM (not active)

Q. Provide one value: measured EC50 of `CCNC(=O)c1ccc(-n2nc(C(F)(F)F)c3c2CCCC3)cc1`
A. > 120 µM (not active)

Q. Provide one value: measured EC50 of `CCOc1ccc(-n2c([S-])c(C(=O)Nc3ccc(S(=O)(=O)N4CCOCC4)cc3)[n+]3cc(C(N)=O)ccc23)cc1`
A. 17.5 µM (active)

====

target: Genome polyprotein (dengue virus type 2, UniProt P29990); test: flavivirus cap methylation enzyme inhibition – biochemical, confirmation dose response, primary screen (AID 588689); assay type: functional
Active and inactive are the calls of the source.
assay-metric: IC50

Example results:
O=C(NCCCO)c1ccc2nc(-c3ccco3)c(-c3ccco3)nc2c1 ... 86.2 µM (active)
Sc1nnc(-c2ccco2)n1/N=C/C(Cl)=C/c1ccccc1 ... 62.7 µM (active)
O=C1CC=C2C3CC4N(CCC45c4cc(O)c(O)cc4N1C25)CC3=CCBr (centres undefined) ... 31.5 µM (active)
O=S(=O)(O)c1ccc(O)c2cc(Nc3ccccc3)ccc12 ... 20 µM (active)
Oc1c(Br)cc(Br)c(/C=N/n2c(S)nnc2-c2ccccc2)c1Br ... 17.9 µM (active)

Q. Provide one value: measured IC50 of `Cc1ccc([C@@H]2CC=C(C(=O)O)[C@H](c3ccc(C(C)(C)C)cc3)N2S(=O)(=O)c2ccc(C)cc2)cc1`
A. 39.8 µM (active)

Q. Provide one value: measured IC50 of CN1CCN(C(c2ccccn2)c2cc(Cl)c3cccnc3c2O)CC1 (centres undefined)
A. > 100 µM (active)

Q. Provide one value: measured IC50 of CC(=O)OCC1=C(C(=O)O)N2C(=O)C(NC(=O)CCn3nc(C(F)(F)F)c(Br)c3C3CC3)C2SC1 (centres undefined)
A. 54.8 µM (active)

Q. Provide one value: measured IC50 of `O=C1NC(=O)C(=Cc2ccc(Oc3ccc([N+](=O)[O-])cc3)cc2)C(=O)N1`
A. 34.5 µM (active)
